measurement_target: T1, human CD3e/g (human, UniProt P07766 23-126; P09693 23-116)
T1 construct: Bought soluble protein; also called hCD3e/g; human CD3e/g (Acro CDD-C52W4)
T1 sequence (P07766 23-126, chain 1 of 2): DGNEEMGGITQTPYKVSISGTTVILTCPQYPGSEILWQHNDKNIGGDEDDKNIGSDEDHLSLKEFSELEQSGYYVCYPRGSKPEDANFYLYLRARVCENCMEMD
T1 sequence (P09693 23-116, chain 2 of 2): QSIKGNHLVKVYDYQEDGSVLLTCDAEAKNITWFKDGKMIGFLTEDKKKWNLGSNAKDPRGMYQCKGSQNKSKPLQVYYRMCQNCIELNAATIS
assay_notes: SPR (Carterra LSA), mAb on chip
pKd: −log10 of the molar value.
# if value of pKd reaches 7, tag Condition met; if it stays below, tag Condition not met

Worked examples, 8 binders total:
**Q:** Has mAb 53 (antibody, V domains shown, VH and VL only) VH: QVQLVQSGAEVKKPGASVKVSCKASGYTFTSYDINWVRQATGQGLEWMGWMNPKSGKTGYAQKFQGRITMTRNTPISTVYMDLSSLRSEDTAVYYCAREGHYDFWTGYYSFDYWGQGTLVTVSS VL: DIQMTQSPSSLSASVGDRVTITCRASQGIRNDLGWYQQTPGKAPKRLIYAASSLQSGVPSRFSGSGSGTEFTLTISSLQPEDFATYYCLQHYSYPYTFGQGTKLEIK a recorded pKd greater than or equal to 7?
**A:** Condition not met

**Q:** Has mAb 215 (antibody, V domains shown, VH and VL only) VH: QVQLVESGGGVVQPGRSLRLSCAATGFTFSGYGMHWVRQAPGKGLEWVAIIYYNGNNRKYADSVKGRFTISRDNSKNTVSLQMNSLRVEDTAIYYCTRGDGYNWFVTWGQGTLVTVSS VL: EIVMTQSPATLSVSPGERATLSCRASQSVSSNLAWYRQKPGQAPRLLIYGASTRATGIPVRFSGSGSGTEFTLTISSLQSEDFAVYYCQQYNNWPLTFGGGTKVEIK a recorded pKd greater than or equal to 7?
**A:** Condition met

**Q:** Has mAb 196 (antibody, V domains shown, VH and VL only) VH: QEQLVESGGGVVQSGRSLRLSCVASGFKFSGYGMHWVRQAPGKGLEWVAIIYYDGKNKYYADSVKGRFTVSRDNSKNTLYLQMNSLRAEDTAVYYCTRGAGYNWFDSWGQGTLVTVSS VL: EIVMTQSPATLSVSPGERATLSCRASQSVRNNLAWYQQKPGQAPRLLIYGVSTRATAFPARFSGSGSGTEFTLTISSLQSEDFAVYYCQQYNNWPLTFGGGTKVEIK a recorded pKd greater than or equal to 7?
**A:** Condition met

**Q:** Has mAb 226 (antibody, V domains shown, VH and VL only) VH: QVQLVESGGGVVQPGRSLRLSCAASGFTFSGYGMHWVRQAPGKGLEWVAIIYYNGNNRKYADSVKGRFTISRDNSKNTVSLQMNSLRVEDTAIYYCTRGDGYNWFVTWGQGTLVTVSS VL: EIVMTQSPATLSVSPGERATLSCRASQSISSNLAWYHQKPGQAPRLLIYGASTRATGIPVRFSGSGSGTEFTLTISSLQSEDFALYYCQQYNNWPLTFGGGTKVEIK a recorded pKd greater than or equal to 7?
**A:** Condition met

**Q:** Has mAb 296 (antibody, V domains shown, VH and VL only) VH: EVQLLESGGGLVQPGGSLRLSCAASGFTFSSYAMSWVRQAPGKGLEWVSAISGSGGTTYYTDSVKGRFTISRDNSKNTLYLQMNSLRAEDTAVYYCAKKYSYYYYYMDVWGKGTTVTVSS VL: SYELTQPLSVSVALGQTARITCGGNNIGSKNVHWYQQKPGQAPVLVIYRDSNRPSGIPERFSGSNSGNTATLTISRAQAGDEADYYCQVWDSSTAVFGGGTQLTAL a recorded pKd greater than or equal to 7?
**A:** Condition not met

**Q:** Has mAb 218 (antibody, V domains shown, VH and VL only) VH: QVQLVESGGGVVQPGRSLRLSCAASGFTFSGYGMHWVRQAPGKGLEWVAIIYYNGNNRKYADSVRGRFTISRDNSKNTVSLQMNSLRVEDTAIYYCTRGDGYNWFVTWGQGTLVTVSS VL: EIVMTQSPATLSVSPGERATLSCRASQSVSSNLAWYYQKPGQAPRLLIYGASTRATGIPVRFSGSGSGTEFTLTISSLQSEDFAVYYCQQYNNWPLTFGGGTKVEIK a recorded pKd greater than or equal to 7?
**A:** Condition met

**Q:** Has mAb 229 (antibody, V domains shown, VH and VL only) VH: QEQLVESGGGVVQPGRSLRLSCAASGFTFSSYGMHWVRQAPGKGLEWVAIIYYNGKKKDYADSVKGRFTISRDNSKNTLYLQMNSLRAEDTAVYYCARGLGYNWFDPWGQGTLVTVSS VL: EIVLTQSPDFQSVTPKEKVTITCRASQSIGSSLHWYQQKPDQSPKLLIKYASQSFSGVPSRFSGSGSGTDFTLTINSLEAEDAATYYCHQSSSLPYTFGQGTKLEIK a recorded pKd greater than or equal to 7?
**A:** Condition met

**Q:** Has mAb 74 (antibody, V domains shown, VH and VL only) VH: EVQLVESGGGLVQPGRSLRLSCAASGFTFADYVMHWVRQAPGKGLEWVSGINWNNARIGYVGSVKGRFTISRDNAKNSLYLQMTSLRVEDTALYHCVREGNFDFWSAYYRGFLDLWGRGTLVTVSS VL: DIQMTQSPSSLSASVGDRVTITCRASQGIRSDLGWYQQKPGKAPKRLIYGASSLQGGVPSRFSGSGSGTEFTLTISSLQPEDFATYYCLQHNSYPYTFGQGTKLEIK a recorded pKd greater than or equal to 7?
**A:** Condition met

***
**Q:** Has mAb 100 (antibody, V domains shown, VH and VL only) VH: QVQLVESGGGVVQPGRSLRLSCVASGFTFRGYGMHWVRQAPGKGLEWVAIIYYDGKNKYYADSVKGRFTISRDNSKNTLYLQMNSLRVEDTALYYCARGGGYNWFDPWGQGTLVTVSS VL: DIQMTQSPSSLSASVGDRVTITCRASQSISTYLNWYQQKPGKAPKLLIYTASSLQSGVPSRFSGSGSGTVFTLTISSLQPEDFAIYYCQRSYSPPFTFGPGTRLDIK a recorded pKd greater than or equal to 7?
**A:** Condition met
